Measured pKd, listed per entry.
- TARGET_OR_SYSTEM: Quadruplex RNA
- EXPERIMENTAL_DETAILS: Binding affinity to DHX15 rG4 (unknown origin) assessed as dissociation constant measured after 320 secs by SPR analysis
pKd: −log10 of the molar value.

INSERT INTO assay_data (smiles_code, target_or_system, data_value) VALUES
  ('Nc1cc2[nH]c(=O)[nH]c2cc1N1CCCC1', 'Quadruplex RNA', 4.90),
  ('O=C(O)[C@H]1Cc2ccccc2CN1', 'Quadruplex RNA', '< 4.00');

// next item, pKd requested
stdin: Identify the measured pKd of O=C(O)[C@@H]1Cc2ccccc2CN1 for Quadruplex RNA.
stdout: < 4.00
